Molecular target: Vitamin D3 receptor (Homo sapiens)
Assay: qHTS assay to identify small molecule agonists of the vitamin D receptor (VDR) signaling pathway (AID 743222)
Details: HEK293T VDR-UAS-bla, beta-lactamase FRET ratio, 16 h; series mostly up to 63.5 µM
Text: National Center for Advancing Translational Sciences [NCATS] NIH Chemical Genomics Center [NCGC] U.S. Environmental Protection Agency [EPA] National Institutes of Environmental Health Sciences [NIEHS] National Toxicology Program [NTP] U.S. Food and Drug Administration [FDA] The vitamin D receptor (VDR), a member of nuclear hormone receptor superfamily, plays a critical role in calcium homeostasis and bone metabolism. It is also involved in cell differentiation and growth, and thrombogenicity. […]
Inconclusive results are not listed. Active and inactive are the calls of the source. Calls follow the shape of the full dose curve.
Choose the fitting class; nothing outside True = active, False = inactive is accepted.

Solved entries (count: 8):
INSERT INTO measurements (compound, label) VALUES
  ('O=S(=O)(O)c1cc(S(=O)(=O)O)c2c(N=Nc3ccccc3)c(O)ccc2c1', 'False'),
  ('Cc1ccc(C)c(C)c1', 'False'),
  ('O=C(c1cc(O)c(O)c(O)c1)c1ccc(O)c(O)c1O', 'False'),
  ('O=[N+]([O-])c1cccc(Cl)c1', 'False'),
  ('CN(C)c1cccc(O)c1', 'False'),
  ('NC(=O)/N=N/C(N)=O', 'False'),
  ('Nc1cc(-c2ccncc2)c[nH]c1=O', 'False'),
  ('CCOC(=O)C1OC1c1ccccc1 (configuration not stated)', 'False');

Can you look up the reported call for CCCCCCCCCCCCOCC1CO1 (configuration not stated) for me? False

Can you look up the reported call for CCCCCCCCC for me? False

Can you look up the reported call for CS(=O)(=O)c1ccc([C@@H](O)[C@@H](CO)NC(=O)C(Cl)Cl)cc1 for me? False

----------
Experiment: qHTS assay to identify small molecule agonists of the sonic hedgehog signaling (Shh) pathway - cell viability counter screen (AID 1259366); also: nearly all actives have a fitted effect of over 50% in size
Details: NIH/3T3 Gli1-Luc viability, CellTiter-Fluor, 24 h; series mostly up to 92.4 µM
Results filed as inconclusive are left out. Activity calls are given as the source filed them. The call rests on the fitted dose curve; in most records, active means well fitted cell-killing curve with a large enough effect in the repeat runs; inconclusive means weak or mixed curves, or effect the other way; inactive means flat fitted curve, though single readings scatter.
Choose the fitting class; nothing outside active, inactive is accepted.

Solved entries (count: 2):
INSERT INTO assay_data (molecule, label) VALUES
  ('CCCCOCCO', 'inactive'),
  ('CCOC(=O)/C=C\C(=O)OCC', 'inactive');

Can you look up the reported call for NS(=O)(=O)c1cc2c(cc1Cl)NC=NS2(=O)=O for me? inactive

Can you look up the reported call for OC[C@@H](O)[C@H](O)[C@H](O)[C@@H](O)CO for me? inactive

----------
Assay: qHTS assay to identify small molecule agonists of the peroxisome proliferator-activated receptor delta (PPARd) signaling pathway - cell viability counter screen (AID 743211); also: nearly all actives have a fitted effect of over 55% in size
Conditions: PPARd-bla HEK293H viability, CellTiter-Glo luminescence, 17 h; series mostly up to 62.6 µM
Source text: U.S. Tox21 Program National Center for Advancing Translational Sciences [NCATS] NIH Chemical Genomics Center [NCGC] U.S. Environmental Protection Agency [EPA] National Institutes of Environmental Health Sciences [NIEHS] National Toxicology Program [NTP] U.S. Food and Drug Administration [FDA] […]
Records with an inconclusive call do not appear. The source made the active and inactive calls. Calls follow the shape of the dose curve; as a rule, active = well fitted cell-killing curve with a large enough effect in the repeat runs; inconclusive = weak or mixed curves; inactive = no such curve, though single readings can be large or run the other way.
Choose the fitting class; nothing outside true = active, false = inactive is accepted.

Solved entries (count: 6):
INSERT INTO measurements (compound, label) VALUES
  ('CCCCC(CC)COC(C)=O (stereo not drawn)', 'false'),
  ('CC1(C)CC(N=C=O)CC(C)(CN=C=O)C1 (stereo not drawn)', 'false'),
  ('Clc1cc(Cl)c(Cl)cc1Cl', 'false'),
  ('O=S(=O)(Oc1ccc(Cl)cc1Cl)c1ccccc1', 'false'),
  ('C=C1C2CCC(C2)C1(C)C (stereo not drawn)', 'false'),
  ('CS(=O)(=O)c1ccc([C@@H](O)[C@@H](CO)NC(=O)C(Cl)Cl)cc1', 'false');

Can you look up the reported call for O=C(O)c1ccc([N+](=O)[O-])cc1 for me? false

----------
Test: Human pregnane X receptor (PXR) small molecule agonists, qHTS cell viability counter screen (AID 1346977); also: nearly all actives have a fitted effect of over 50% in size
Conditions: PXR-Luc HepG2 viability, CellTiter-Fluor, 24 h; series mostly up to 92.4 µM
Records with an inconclusive call do not appear. Calls of active or inactive are those of the source. Calls come from the whole dose curve; as a rule, active = well fitted cell-killing curve with a large enough effect in the repeat runs; inconclusive = weak or mixed curves, or effect the other way; inactive = flat fitted curve, though single readings scatter.
Choose the fitting class; nothing outside 1 (active), -1 (inactive) is accepted.

Solved entries (count: 6):
INSERT INTO measurements (compound, label) VALUES
  ('C=C(C#N)C(=O)OCC', -1),
  ('OCCOCCOCCOCCO', -1),
  ('CC(C)(CO)COC(=O)C(C)(C)CO', -1),
  ('NCCc1ccc(O)c(O)c1', 1),
  ('NCc1cccc(CN)c1', -1),
  ('CCCCC(CC)COC(C)=O (stereo unspecified)', -1);

Can you look up the reported call for CS(=O)(=O)c1ccc([C@@H](O)[C@@H](CO)NC(=O)C(Cl)Cl)cc1 for me? -1

Can you look up the reported call for NC(=O)/N=N/C(N)=O for me? -1

Can you look up the reported call for O=S(=O)(Oc1ccc(Cl)cc1Cl)c1ccccc1 for me? -1

----------
Test: qHTS assay for small molecule agonists of the antioxidant response element (ARE) signaling pathway - cell viability counter screen (AID 743203); also: nearly all actives have a fitted effect of over 55% in size
Details: ARE-bla HepG2 viability, CellTiter-Glo luminescence, 16 h; series mostly up to 73.3 µM
Source text: National Center for Advancing Translational Sciences [NCATS] NIH Chemical Genomics Center [NCGC] U.S. Environmental Protection Agency [EPA] National Institutes of Environmental Health Sciences [NIEHS] National Toxicology Program [NTP] U.S. Food and Drug Administration [FDA] Oxidative stress has been implicated in the pathogenesis of a variety of diseases ranging from cancer to neurodegeneration. […] The activation of the report gene under culture conditions can be detected by fluorescence intensity. […]
Records with an inconclusive call do not appear. Active and inactive are the calls of the source. Calls come from the whole dose curve.
endpoint: outcome

INSERT INTO measurements (molecular_string, endpoint, measurement) VALUES
  ('Oc1c(Cl)cc(Cl)c(Cl)c1Cl', 'outcome', 'inactive'),
  ('C=C(C)C(=O)OCC(CC)(COC(=O)C(=C)C)COC(=O)C(=C)C', 'outcome', 'inactive'),
  ('CCCCCCCCCC(=O)O', 'outcome', 'inactive');

----------
Test: qHTS assay to identify small molecule agonists of the estrogen receptor alpha (ER-alpha) signaling pathway in the presence of an antagonist - cell viability counter screen (AID 1259386);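 also: cells exposed to compounds for 22 h at 37 °C before the viability read; nearly all actives have a fitted effect of over 30% in size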
Settings: VM7Luc4E2 viability, CellTiter-Fluor fluorescence, 22 h; series mostly up to 92.4 µM
Results filed as inconclusive are left out. The source made the active and inactive calls. Calls come from the whole dose curve; as a rule, active = well fitted cell-killing curve with a large enough effect in the repeat runs; inconclusive = weak or mixed curves, or effect the other way; inactive = no such curve, though single readings can be large or run the other way.
Choose the fitting class; nothing outside t = active, f = inactive is accepted.

INSERT INTO measurements (molecule, label) VALUES
  ('CC(C)(CO)COC(=O)C(C)(C)CO', 'f');

Okay, now this molecule:
Can you look up the reported call for CC(C)(C)C1CCC(O)CC1 (stereo not drawn) for me? f

----------
Experiment: qHTS assay for identifying genotoxic compounds that show differential cytotoxicity against isogenic chicken DT40 cell lines with known DNA damage response pathways - wild type cell line (AID 743012); also: nearly all actives have a fitted effect of over 60% in size
Conditions: DT40 wild type chicken cells viability, CellTiter-Glo, 40 h; series mostly up to 68.4 µM
Inconclusive results are not listed. Activity calls are given as the source filed them. Calls follow the shape of the dose curve; as a rule, active = well fitted cell-killing curve with a large enough effect in the repeat runs; inconclusive = weak or mixed curves, or effect the other way; inactive = no such curve, though single readings can be large or run the other way.
Choose the fitting class; nothing outside active, inactive is accepted.

INSERT INTO assay_data (compound, label) VALUES
  ('CCCCCCCCCCCCOCC1CO1 (configuration not stated)', 'inactive'),
  ('CS(=O)(=O)Nc1ccc([N+](=O)[O-])cc1Oc1ccccc1', 'inactive'),
  ('CCc1ccccc1O', 'inactive');

Can you look up the reported call for CCCCCCC(C)(C)S for me? inactive

Can you look up the reported call for Cc1cc(NS(=O)(=O)c2ccc(N)cc2)no1 for me? inactive

Can you look up the reported call for C=C1C2CCC(C2)C1(C)C (configuration not stated) for me? inactive

Can you look up the reported call for CCCCCCOC(C)=O for me? inactive

Can you look up the reported call for NCc1cccc(CN)c1 for me? inactive

Can you look up the reported call for COCC(C)O (configuration not stated) for me? inactive

Can you look up the reported call for CC(C)NCC(O)COc1cccc2ccccc12 (configuration not stated) for me? inactive

Can you look up the reported call for NCCc1ccc(O)c(O)c1 for me? active

Can you look up the reported call for OC1CCCC1 for me? inactive

----------
Biological target: Aromatase (Homo sapiens) (UniProt P11511)
Sequence (P11511 whole entry, looked up): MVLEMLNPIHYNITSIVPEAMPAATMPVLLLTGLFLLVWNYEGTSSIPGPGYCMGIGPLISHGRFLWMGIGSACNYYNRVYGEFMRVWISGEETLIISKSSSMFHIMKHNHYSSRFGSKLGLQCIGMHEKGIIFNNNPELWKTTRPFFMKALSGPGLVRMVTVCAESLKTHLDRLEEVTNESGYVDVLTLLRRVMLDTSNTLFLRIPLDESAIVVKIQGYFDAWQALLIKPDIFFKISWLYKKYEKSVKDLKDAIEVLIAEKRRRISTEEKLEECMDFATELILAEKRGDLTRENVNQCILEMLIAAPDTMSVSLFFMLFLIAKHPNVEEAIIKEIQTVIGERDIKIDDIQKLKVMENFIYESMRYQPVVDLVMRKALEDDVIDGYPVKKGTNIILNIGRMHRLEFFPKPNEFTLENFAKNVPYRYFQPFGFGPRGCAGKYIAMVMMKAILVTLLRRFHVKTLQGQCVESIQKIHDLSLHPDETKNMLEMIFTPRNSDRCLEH
Assay: qHTS assay to identify aromatase inhibitors (AID 743083); also: nearly all actives have a fitted effect of over 55% in size
Details: MCF-7 aro ERE, testosterone-driven ERE luciferase, 24 h; series mostly up to 70.3 µM
Inconclusive results are not listed. Activity calls are given as the source filed them. Calls follow the shape of the dose curve; as a rule, active = well fitted inhibition curve with a large enough effect in the repeat runs; inconclusive = weak or mixed curves; inactive = no such curve, though single readings can be large or run the other way.
Choose the fitting class; nothing outside Y = active, N = inactive is accepted.

Solved entries (count: 5):
INSERT INTO results (compound, label) VALUES
  ('CCCCCC/C=C/CCCCCCCC(=O)O', 'N'),
  ('NS(=O)(=O)c1cc2c(cc1Cl)NC=NS2(=O)=O', 'N'),
  ('CCCCC(CC)COC(C)=O (configuration not stated)', 'N'),
  ('Cn1c([N+](=O)[O-])cnc1COC(N)=O', 'N'),
  ('Cc1cc(=O)[nH]c(C(C)C)n1', 'N');

Can you look up the reported call for CCCCCCC(C)(C)S for me? N

Can you look up the reported call for OC[C@@H](O)[C@H](O)[C@H](O)[C@@H](O)CO for me? N

Can you look up the reported call for CCCCNC(N)=O for me? N

Can you look up the reported call for CC(C)NCC(O)COc1cccc2ccccc12 (configuration not stated) for me? N

Can you look up the reported call for c1ccc2ccccc2c1 for me? N

Can you look up the reported call for Clc1ccc(Cl)c(Cl)c1Cl for me? N

Can you look up the reported call for COC(=O)c1ccccc1O for me? N

Can you look up the reported call for CCOC(=O)C1OC1c1ccccc1 (configuration not stated) for me? N

Can you look up the reported call for CC1(C)CC(N=C=O)CC(C)(CN=C=O)C1 (configuration not stated) for me? N

Can you look up the reported call for Oc1c(Cl)cc(Cl)c(Cl)c1Cl for me? N

Can you look up the reported call for CC(=O)Nc1ccc(C(=O)O)cc1 for me? N

Can you look up the reported call for CCCCCCCCCCCCN for me? Y
